// provenance: patent US20240270806A1

Target: T1, Human IL-12 (human, UniProt P29460 23-328; P29459 23-219)
T1 construct: also called human Interleukin-12
T1 sequence (looked up) 1: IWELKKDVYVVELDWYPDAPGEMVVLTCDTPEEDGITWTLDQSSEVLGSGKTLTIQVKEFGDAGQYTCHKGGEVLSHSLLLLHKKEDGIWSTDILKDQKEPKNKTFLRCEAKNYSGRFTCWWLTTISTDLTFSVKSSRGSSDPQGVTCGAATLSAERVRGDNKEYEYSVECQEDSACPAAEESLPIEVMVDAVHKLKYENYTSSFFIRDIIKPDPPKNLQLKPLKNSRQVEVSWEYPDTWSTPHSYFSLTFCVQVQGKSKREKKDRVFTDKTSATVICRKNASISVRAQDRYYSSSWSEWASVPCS
T1 sequence (looked up) 2: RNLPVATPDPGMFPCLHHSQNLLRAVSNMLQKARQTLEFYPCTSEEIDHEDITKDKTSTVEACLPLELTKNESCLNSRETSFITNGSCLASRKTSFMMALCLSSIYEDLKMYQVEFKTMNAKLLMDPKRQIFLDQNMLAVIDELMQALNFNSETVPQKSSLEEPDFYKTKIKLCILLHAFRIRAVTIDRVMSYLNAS
Test: SPR, BIACORE T200, 37 degrees C, pH 7.4; antibody captured by anti-human Fc antibody, human IL-12 injected at 5 and 20 nM; 1:1 binding model
Recorded Kd values for a group of binders are listed next.

Binder	Kd (nM)
Anti-IL-12 antibody Ab1, variable region variant Ab101H/Ab102L (antibody, V domains shown) VH: QVQLVQSGAEVKKPGSSVKVSCKASGGTFSDYYLHWVRQAPGQGLEWMGWIDPENGDTEYAPKFQGRVTITADESTSTAYMELSSLRSEDTAVYYCARNKELRYFDVWGQGTLVTVSS VL: DIVMTQSPLSLPVTPGEPASISCRASQSISINLHWYQQKPGQAPRLLIYFASQSISGVPSRFSGSGSGTDFTLTISSLQPEDFATYYCQQSNSFPLTFGQGTKVEIKR	1.45
Anti-IL-12 antibody, Ab1, comprising VH release enhancing mutations (Ab101H89-12aa0054-C8/Ab102L69-SK1) (antibody, V domains shown, Homodimer of a light and a heavy chain; Mutations V37S, F100aI / L46Q, Y49A; also called Ab101H89/Ab102L69) VH: QVQLVQSGAEVKKPGSSVKVSCKASGGTFSDYYLHWSRQAPGQGLEWMGWIDPENGDTEYAPKFQGRVTITADESTSTAYMELSSLRSEDTAVYYCARNKELRYIDVWGQGTLVTVSS VL: DIVMTQSPLSLPVTPGEPASISCRASQSISINLHWYQQKPGQAPRQLIAFASQSISGVPSRFSGSGSGTDFTLTISSLQPEDFATYYCQQSNSFPLTFGQGTKVEIKR	6.52
Anti-IL-12 antibody Ab1, variable region variant Ab101H89/Ab102L994 (antibody, V domains shown, Mutations V37S, F100aI / L46Q, Y49A, N92Y) VH: QVQLVQSGAEVKKPGSSVKVSCKASGGTFSDYYLHWSRQAPGQGLEWMGWIDPENGDTEYAPKFQGRVTITADESTSTAYMELSSLRSEDTAVYYCARNKELRYIDVWGQGTLVTVSS VL: DIVMTQSPLSLPVTPGEPASISCRASQSISINLHWYQQKPGQAPRQLIAFASQSISGVPSRFSGSGSGTDFTLTISSLQPEDFATYYCQQSYSFPLTFGQGTKVEIKR	3.51
Anti-IL-12 antibody Ab1, variable region variant Ab101H725/Ab102L1087 (antibody, V domains shown, Mutations V37S, G55Q, N95T, F100aI / A25S, Q27D, L46Q, Y49A) VH: QVQLVQSGAEVKKPGSSVKVSCKASGGTFSDYYLHWSRQAPGQGLEWMGWIDPENQDTEYAPKFQGRVTITADESTSTAYMELSSLRSEDTAVYYCARTKELRYIDVWGQGTLVTVSS VL: DIVMTQSPLSLPVTPGEPASISCRSSDSISINLHWYQQKPGQAPRQLIAFASQSISGVPSRFSGSGSGTDFTLTISSLQPEDFATYYCQQSNSFPLTFGQGTKVEIKR	1.27
